pIC50: −log10 of the molar value.
Record form. Attribute: pIC50. Fill in for each entry.

// query Using Human NAMPT (Homo sapiens, UniProt P43490) as the test system, report measured pIC50 of `O=C(NCc1cccnc1)Nc1ccc(-n2cc(CCN3CCCC3)c3ccccc32)cc1` .
// result ~9.00

// query Report value: pIC50, system: Human NAMPT (Homo sapiens, UniProt P43490), compound: CC(C(=O)N(C)C)N1CCC2(CC1)CN(c1ccc(NC(=O)NCc3cccnc3)cc1)c1ccccc12 (centres unmarked)
Sequence (P43490 whole entry): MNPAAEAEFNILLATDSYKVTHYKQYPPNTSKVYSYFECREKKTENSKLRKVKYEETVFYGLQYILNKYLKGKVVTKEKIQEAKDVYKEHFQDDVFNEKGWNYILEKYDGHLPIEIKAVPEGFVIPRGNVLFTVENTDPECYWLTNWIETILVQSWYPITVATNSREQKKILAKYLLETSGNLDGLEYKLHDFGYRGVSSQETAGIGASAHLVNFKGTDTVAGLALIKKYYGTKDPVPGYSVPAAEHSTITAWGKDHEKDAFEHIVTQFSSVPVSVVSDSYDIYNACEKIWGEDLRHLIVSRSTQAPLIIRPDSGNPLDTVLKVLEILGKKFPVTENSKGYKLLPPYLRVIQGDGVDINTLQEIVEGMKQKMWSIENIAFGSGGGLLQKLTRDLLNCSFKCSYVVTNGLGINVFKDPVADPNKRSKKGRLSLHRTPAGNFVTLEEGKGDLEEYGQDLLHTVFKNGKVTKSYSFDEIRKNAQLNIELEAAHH
// result > 9.00

// query Look up and report pIC50, with Human NAMPT (Homo sapiens, UniProt P43490) as system, for `Cc1c(-c2ccccc2)c(C(=O)O)nn1-c1ccc(NC(=O)NCc2cccnc2)cc1`
// result ~8.70

// query System Human NAMPT (Homo sapiens, UniProt P43490). Read-out pIC50. Item `CC(C)N1CCC2(CC1)CN(c1ccc(NC(=O)NCc3cccnc3)cc1)c1ccccc12` . Report value.
// result > 9.00

// query Specify the recorded pIC50 for `O=C(/C=C/c1ccc(-n2nc(C(=O)N3CC(N4CCOCC4)C3)c3ccccc32)cc1)NCc1cccnc1` , system: Human NAMPT (Homo sapiens, UniProt P43490).
// result ~8.52

// query Please report the measured pIC50 for `O=C(/C=C/c1ccc(-n2cc(CCN3CCOCC3)c3ccccc32)cc1)NCc1cccnc1` tested on Human NAMPT (Homo sapiens, UniProt P43490).
// result ~9.00

// query # return pIC50 of `O=C(NCc1cccnc1)Nc1ccc(-n2nc(C(=O)NCCN3CCCC3)c3ccccc32)cc1` (system: Human NAMPT (Homo sapiens, UniProt P43490))
// result ~8.70

// query Print Human NAMPT (Homo sapiens, UniProt P43490) pIC50 for `O=C(NCc1cccnc1)Nc1ccc(-n2cc(C(=O)N3CC(N4CCNCC4)C3)c3ccccc32)cc1` .
// result ~9.00
